# Assay name: Bioassay: distribution of I-123-labeled compounds in organs of rats after tail vein injection (percent dose/gram, brain/blood ratio)
# Type: in vivo, Female Sprague-Dawley rats
# Condition description: rat, iv, heart, 5 minutes post-injection, 0.05 to 1.0 mCi, two rats, read-out: Percent Dose/Gram Heart 5 min.
Assay metric: tissue uptake at 5 min (%ID/g)
The figure you give is taken to be in %ID/g; do not add the unit.

Memo: CNCCc1ccccc1[123I] [I--123-N--methyl-o-iodo-β-phenethylamine] , reported tissue uptake at 5 min: 1.07

tissue uptake at 5 min in this record for [123I]c1ccccc1NCCc1ccccc1 [I--123-N--β-phenethyl-o-iodoaniline] : 1.16

Reported tissue uptake at 5 min for [123I]c1ccc(NCCc2ccccc2)cc1 [I--123-N--β-phenethyl-p-iodoaniline] was 1.38

// recorded tissue uptake at 5 min for CC1CCCC(C)N1Cc1ccccc1[123I] (centres unmarked) : 1.14

Sample CC(C)Nc1ccc([123I])cc1 [I--123-N--isopropyl-p-iodoaniline] ; tissue uptake at 5 min observed: 1.01

Measured tissue uptake at 5 min, C[C@@H](N)Cc1ccc([123I])cc1 [I--123-R--p-iodoamphetamine, I-123-R-p-iodoamphetamine] : 2.43

tissue uptake at 5 min recorded for this compound, CC(C)NCc1ccccc1[123I] [I--123-N--isopropyl-o-iodobenzylamine, I-123-N-isopropyl-o-iodobenzylamine] , is 0.72

[123I]c1ccccc1CN1CCCCC1 [I--123-N--o-iodobenzylpiperidine] yielded tissue uptake at 5 min of 0.56

###

# Assay name: Bioassay: distribution of I-123-labeled compounds in organs of rats after tail vein injection (percent dose/gram, brain/blood ratio)
# Assay type: in vivo, Female Sprague-Dawley rats
# Condition description: rat, iv, brain, 5 minutes post-injection, 0.05 to 1.0 mCi, two rats, read-out: Percent Dose/Gram Brain 5 min.
Assay metric: tissue uptake at 5 min (%ID/g)
# output: bare number, implied unit %ID/g

A selection of reference data follows.
>>> assay_value("CC(C)N(Cc1ccccc1[123I])C(C)C")
1.4
>>> assay_value("CC(C)(C)NCc1ccccc1[123I]")
1.49
>>> assay_value("C[C@@H](N)Cc1ccc([123I])cc1")
1.38

Read the next record carefully.
Lookup result for CCNCc1ccccc1[123I] ; measured tissue uptake at 5 min: 1.06

###

# Assay name: Bioassay: distribution of I-123-labeled compounds in organs of rats after tail vein injection (percent dose/gram, brain/blood ratio)
# Assay type: in vivo, Female Sprague-Dawley rats
# Condition description: rat, iv, brain, 5 minutes post-injection, 0.05 to 1.0 mCi, two rats, read-out: Percent Dose/Gram Brain 5 min.
tissue uptake at 5 min strictly less than 0.8 %ID/g = true. Otherwise false.

Some entries whose results are on file:
>>> assigned_label("[123I]c1ccc(N(Cc2ccccc2)Cc2ccccc2)cc1")
"true"
>>> assigned_label("NCCc1ccccc1[123I]")
"true"
>>> assigned_label("C[C@H](N)Cc1ccc([123I])cc1")
"false"
>>> assigned_label("CCCNCc1ccccc1[123I]")
"false"
>>> assigned_label("Nc1ccc([123I])cc1")
"false"

Confirm or reject: tissue uptake at 5 min of CC(C)Nc1ccccc1[123I] lies strictly below 0.8 %ID/g false

Would you kindly verify if tissue uptake at 5 min of CC(C)N[C@H](C)Cc1ccc([123I])cc1 is strictly less than 0.8 %ID/g? false

###

# Assay name: Bioassay: distribution of I-123-labeled compounds in organs of rats after tail vein injection (percent dose/gram, brain/blood ratio)
# Assay type: in vivo, Female Sprague-Dawley rats
# Condition description: rat, iv, heart, 5 minutes post-injection, 0.05 to 1.0 mCi, two rats, read-out: Percent Dose/Gram Heart 5 min.
So basically, if tissue uptake at 5 min comes in under 2 %ID/g it's label 1, and if it's 2 %ID/g or more it's label 0.

Example entries and their recorded answers appear below.
>>> assigned_label("CC(C)N[C@H](C)Cc1ccc([123I])cc1")
"label 1"
>>> assigned_label("[123I]c1ccc(N(Cc2ccccc2)Cc2ccccc2)cc1")
"label 0"
>>> assigned_label("CCNCc1ccccc1[123I]")
"label 1"

Please indicate whether the reported tissue uptake at 5 min of CCN(Cc1ccccc1I)Cc1ccccc1[123I] is strictly below 2 %ID/g. label 0

For [123I]c1ccccc1CCNCCc1ccccc1 , is the recorded tissue uptake at 5 min below the cut-off of 2 %ID/g? label 1

Is the reported tissue uptake at 5 min for NC(=O)C(Nc1ccc([123I])cc1)c1ccccc1 (stereo not drawn) [I--123-α-(p-iodoanilino)phenylacetamide] strictly below 2 %ID/g? label 1

Please let me know if CC(C)NCc1cccc([123I])c1 shows tissue uptake at 5 min below 2 %ID/g. label 1

###

# Assay name: Bioassay: distribution of I-123-labeled compounds in organs of rats after tail vein injection (percent dose/gram, brain/blood ratio)
# Assay type: in vivo, Female Sprague-Dawley rats
# Condition description: rat, iv, brain, 60 minutes post-injection, 0.05 to 1.0 mCi, two rats, read-out: Percent Dose/Gram Brain 60 min.
Listed compounds paired with reported tissue uptake at 1 h
Return type: number; implicit unit %ID/g.

>>> assay_value("CC(C)N[C@H](C)Cc1ccc([123I])cc1")
2.14

# compound [123I]c1ccccc1NCc1ccccc1 ; its tissue uptake at 1 h = 0.29

# tissue uptake at 1 h (compound: [123I]c1ccccc1CN1CCCCC1 ) is 0.29

According to the records, this compound CC(C)NCc1cccc([123I])c1 displays tissue uptake at 1 h of 0.85

GET /value?item= [123I]c1ccc(NCc2ccccc2)cc1 &field=tissue uptake at 1 h returns 0.44

tissue uptake at 1 h recorded for this compound, CC1CCCC(C)N1Cc1ccccc1[123I] (stereo not shown) , is 0.32

For record [123I]c1ccccc1NCCc1ccccc1 the listed tissue uptake at 1 h is 0.16

Record summary for [123I]c1ccc(N(Cc2ccccc2)Cc2ccccc2)cc1 : reported tissue uptake at 1 h = 0.22

Short answer for CC(C)N(Cc1ccccc1[123I])C(C)C : tissue uptake at 1 h was 0.46

# compound CC1CCC(C)N1Cc1ccccc1[123I] (stereo not shown) ; its tissue uptake at 1 h = 0.22

Input Cc1cccc(C)c1NC(=O)CNCCc1ccccc1[123I] . Output tissue uptake at 1 h: 0.08

###

# Assay name: Bioassay: distribution of I-123-labeled compounds in organs of rats after tail vein injection (percent dose/gram, brain/blood ratio)
# Type: in vivo, Female Sprague-Dawley rats
# Condition description: 5 minutes post-injection
Assay metric: Brain/Blood Ratio 5 min.
The answer should be written as a number, with no unit following it.

# count of solved cases: 5
>>> assay_value("N#CC(Nc1ccccc1)c1ccccc1[123I] (stereo not drawn)")
4.68
>>> assay_value("CC(C)N(CCc1ccccc1)CCc1ccccc1[123I]")
1.83
>>> assay_value("CC(C)NCc1ccccc1[123I] [I--123-N--isopropyl-o-iodobenzylamine, I-123-N-isopropyl-o-iodobenzylamine]")
7.63
>>> assay_value("[123I]c1ccccc1NCCc1ccccc1 [I--123-N--β-phenethyl-o-iodoaniline]")
1.24
>>> assay_value("NC(=O)C(Nc1ccc([123I])cc1)c1ccccc1 (stereo not drawn) [I--123-α-(p-iodoanilino)phenylacetamide]")
1.30

# compound CC(Cc1ccccc1)NCc1ccccc1[123I] (racemic) [I--123-N--o-iodobenzylamphetamine (dl)] ; its Brain/Blood Ratio 5 min. = 3.93

Kindly note the recorded Brain/Blood Ratio 5 min. for [123I]c1ccc(N(Cc2ccccc2)Cc2ccccc2)cc1 [I--123-N,N--dibenzyl-p-iodoaniline] , which is 0.53

Input [123I]c1ccccc1CNc1ccccc1 [I--123-N--o-iodobenzylaniline] . Output Brain/Blood Ratio 5 min.: 1.70

The reported Brain/Blood Ratio 5 min. of the compound Nc1ccccc1[123I] [I--123-o-iodoaniline] was 0.28

###

# Assay name: Bioassay: distribution of I-123-labeled compounds in organs of rats after tail vein injection (percent dose/gram, brain/blood ratio)
# Format: in vivo, Female Sprague-Dawley rats
# Condition description: 60 minutes post-injection
List of Brain/Blood Ratio 60 min. values.

>>> assay_value("C[C@@H](N)Cc1ccc([123I])cc1")
18.50

Entry CC(Cc1ccccc1)NCCc1ccccc1[123I] (racemic) , Brain/Blood Ratio 60 min. reported as 7.86

Cc1cccc(C)c1NC(=O)CNCCc1ccccc1[123I] yielded Brain/Blood Ratio 60 min. of 0.31

# Brain/Blood Ratio 60 min. (compound: CC(C)Nc1ccc([123I])cc1 ) is 0.33

Quick note, Brain/Blood Ratio 60 min. for [123I]c1ccccc1CNCCc1ccccc1 landed at 0.96

The measured Brain/Blood Ratio 60 min. associated with CCN(Cc1ccccc1I)Cc1ccccc1[123I] reads 0.88

The value of Brain/Blood Ratio 60 min. measured for the compound CC(C)NCCc1ccccc1[123I] turned out to be 5.83

Sure, the documented Brain/Blood Ratio 60 min. for CC1CCCC(C)N1Cc1ccccc1[123I] (stereo not drawn) is 1.59

Form field Brain/Blood Ratio 60 min., entry CC(C)(C)NCc1ccccc1[123I] : 8.16
